Hey, just so you know, these numbers are from the SangsterLogP compilation.

- TEST_DETAILS: method code SF-AS, from DOI: 10.1081/jlc-100100410
- COND: pH 4.0
MEASUREMENT_KIND: logD

{"SUBSTANCE_SMILES": "CC(C)Oc1ccc(C(=O)NS(=O)(=O)c2ccc(N)cc2)cc1", "REPORTED_RESULT": 1.21}

----------
In this section, each of the compounds is paired with its reported logP.
- TEST_DETAILS: method code SF-AS, from DOI: 10.1248/cpb.26.2824
MEASUREMENT_KIND: logP

{"SUBSTANCE_SMILES": "O=C(O)c1ccccc1[N+](=O)[O-]", "MEASUREMENT_KIND": "logP", "REPORTED_RESULT": 1.46}
{"SUBSTANCE_SMILES": "Cc1ccccc1C(=O)O", "MEASUREMENT_KIND": "logP", "REPORTED_RESULT": 2.18}

----------
- TEST_DETAILS: method code SF-RC, from DOI: 10.1016/j.nucmedbio.2013.04.008, PMID: 23731552
- COND: pH 7.4

{"SUBSTANCE_SMILES": "O=C(Nc1cccnn1)N1CCC(=Cc2cccc(Oc3ccc(C(F)(F)F)cn3)c2)CC1", "logD": 3.48}

----------
- TEST_DETAILS: method code SF-AS, from DOI: 10.1111/j.2042-7158.1989.tb06384.x, PMID: 2576447
- COND: pH 7.4
Returns: string. Value is yes if measured logD is below 0.3, and no if it is greater than or equal to it.

{"SUBSTANCE_SMILES": "CCCCn1c(=O)n(C)c(=O)c2nc[nH]c21", "GROUP": "no"}
{"SUBSTANCE_SMILES": "CCCCn1c(=O)[nH]c(=O)c2nc[nH]c21", "GROUP": "no"}
{"SUBSTANCE_SMILES": "CCn1c(=O)n(C)c(=O)c2nc[nH]c21", "GROUP": "no"}
{"SUBSTANCE_SMILES": "CCn1c(=O)[nH]c(=O)c2nc[nH]c21", "GROUP": "yes"}
{"SUBSTANCE_SMILES": "CCCn1c(=O)[nH]c(=O)c2nc[nH]c21", "GROUP": "no"}

----------
- TEST_DETAILS: method code SF, from DOI: 10.1016/s0223-5234(00)80025-2, PMID: 11278041
- COND: pH 7.4

{"COMPOUND": "CC(C)Cc1ccc(C(C)C(=O)OCN2C(=O)C(=O)c3ccccc32)cc1 (stereo unspecified)", "logD": 4.23}

----------
- TEST_DETAILS: method code SF-HPLC, from DOI: 10.1002/jps.2600780218, PMID: 2715940
- COND: pH 7.4

{"SUBSTANCE_SMILES": "CC(=O)N(C)c1ccc([N+](=O)[O-])cc1", "logD": 0.91}
{"SUBSTANCE_SMILES": "CC(=O)Nc1ccc(C#N)cc1", "logD": 1.36}

----------
- TEST_DETAILS: method code SF-CR+AS, from Korenman, I.; Tishchenko, M.; Kombarova, A. (1977). Distribution of dihydroxynaphthalenes between higher alcohols and water. Zh. Prikl. Khim., 50(4)899-901.
- COND: pH 2.0
MEASUREMENT_KIND: logD

{"SUBSTANCE_SMILES": "Oc1ccc2cccc(O)c2c1", "MEASUREMENT_KIND": "logD", "REPORTED_RESULT": 1.94}
